tested-system: T1, P5A-bH
T1 chain: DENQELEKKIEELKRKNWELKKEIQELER
procedure-summary: two-hybrid library CCNG1;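 note: natural log of median RNA to DNA barcode read ratio; higher means stronger binding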
Recorded interaction score, one value per entry.

| binder | interaction score |
| --- | --- |
| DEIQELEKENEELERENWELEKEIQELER [P1A-bH] | -0.798 |
| DKNQELKKKIEELKRKIWELKKENQELER [P12A-bH] | -2.21 |
| DENQELEKKIEELKRKNWELKKEIQELER [P5A-bH] | -1.13 |
| DENQELEKEIEELEREIWELEKKNQELKR [P11A-bH] | 0.555 |
| DEIQELEKEIEELERKNWELKKKNQELKR [P3A-bH] | 0.779 |
| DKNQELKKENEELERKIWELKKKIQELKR [P10A-bH] | -0.49 |
| DKIQELKKKIEELKRENWELEKENQELER [P4A-bH] | -0.285 |

All values here come from paper PMC10397247.
